Source: patent US12582645B2

target: CXCR4 (Homo sapiens, UniProt P61073); construct: Human T lymphoblast cells (CCRF-CEM) expressing endogenous CXCR4 receptors; endogenous in cells; host or cells: CCRF-CEM (human T lymphoblast cells); test: CXCR4-CEM calcium flux assay, antagonist mode (inhibition of SDF-1α-induced calcium flux); type: cell-based; details: CCRF-CEM cells expressing endogenous CXCR4, stimulated with 4 nM SDF-1α, read-out: CXCR4 Ca^2+ Flux IC50
Sequence (P61073 whole entry): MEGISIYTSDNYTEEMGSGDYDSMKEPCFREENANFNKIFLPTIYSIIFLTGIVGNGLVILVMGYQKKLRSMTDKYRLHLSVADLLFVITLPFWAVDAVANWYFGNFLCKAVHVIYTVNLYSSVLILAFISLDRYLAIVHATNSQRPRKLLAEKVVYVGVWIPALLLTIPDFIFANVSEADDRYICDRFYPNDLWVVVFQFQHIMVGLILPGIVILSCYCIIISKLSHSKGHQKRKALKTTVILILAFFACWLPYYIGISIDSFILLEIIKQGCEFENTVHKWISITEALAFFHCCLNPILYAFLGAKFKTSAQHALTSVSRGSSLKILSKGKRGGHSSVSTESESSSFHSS
pIC50: −log10 of the molar value.

compound | reportedRelation | pIC50
CN(C[C@H]1Cc2c(cccc2N2CC3CNCC3C2)CN1)C1CCCc2cccnc21 (stereo partly drawn) | = | 7.99
CC(C)N(C[C@H]1Cc2c(cccc2N2CCNCC2)CN1)[C@H]1CCCc2cccnc21 | = | 6.44
Cc1cnc(CN(C)C[C@H]2Cc3c(cccc3N3CCNCC3)CN2)c(C)c1 | = | 7.67
CN(C)[C@@H]1CCN(c2cccc3c2C[C@H](CN(C)[C@H]2CCCc4cccnc42)NC3)C1 | = | 7.98
C(=C\CN(C[C@H]1Cc2ccccc2CN1)[C@H]1CCCc2cccnc21)/CNCc1cccnc1 | = | 7.03
NCC1CC1CN(C[C@H]1Cc2ccccc2CN1)[C@H]1CCCc2cccnc21 (single isomer, unassigned) [EMU030 (Stereoisomer 1)] | = | 8.19
FC1(F)CCC(NC/C=C\CN(C[C@H]2Cc3ccccc3CN2)[C@H]2CCCc3cccnc32)CC1 | = | 7.01
c1cnc2c(c1)CCC[C@@H]2N(CCCN1CCNCC1)Cc1nc2ccccc2[nH]1 | = | 7.34
CN1CCC(N(C)c2cccc3c2C[C@H](CN(C)[C@H]2CCCc4cccnc42)NC3)CC1 | = | 7.87
C(=C\CN(C[C@H]1Cc2ccccc2CN1)[C@H]1CCCc2cccnc21)/CNCC1CCOCC1 | = | 7.62
NCc1ccc(CN(CC2Cc3ncccc3CN2)[C@H]2CCCc3cccnc32)cc1 (single isomer, unassigned) [EMU194] | = | 6.96
Cc1ccc(CN(CCCCN)C[C@H]2Cc3c(cccc3N3CCNCC3)CN2)nc1 | = | 6.94
Cc1cccnc1CN(C)C[C@H]1Cc2c(cccc2N2CCNCC2)CN1 | = | 7.04
CN(CC1Cc2c(cccc2NC2CCNCC2)CN1)[C@H]1CCCc2cccnc21 (single isomer, unassigned) [EMU044 (Stereoisomer 1)] | = | 7.74
c1cnc2c(c1)CCC[C@@H]2N(CC1CC1)C[C@H]1Cc2c(cccc2N2CCNCC2)CN1 | = | 7.57
CN1Cc2cccc(N3CCN4CCC[C@@H]4C3)c2C[C@@H]1CN(C)[C@H]1CCCc2cccnc21 | = | 7.35
Cc1cccnc1CN(CCCCN)C[C@H]1Cc2c(cccc2N2CCNCC2)CN1 | = | 8.01
CN(CC1Cc2c(cccc2NC2CCNCC2)CN1)[C@H]1CCCc2cccnc21 (single isomer, unassigned) [EMU044 (Stereoisomer 2)] | = | 5.77
CN1C[C@@H]2CN(c3cccc4c3C[C@H](CN(C)C3CCCc5cccnc53)NC4)C[C@@H]2C1 (stereo partly drawn) | = | 8.02
NC(=O)NC/C=C\CN(C[C@H]1Cc2ccccc2CN1)[C@H]1CCCc2cccnc21 | = | 6.68
c1cnc2c(c1)CCC[C@@H]2N(CC1CCCCC1)CC1Cc2c(cccc2N2CCNCC2)CN1 (single isomer, unassigned) [EMU100 (Stereoisomer 1)] | = | 6.15
CC(C)N1CCN(c2cccc3c2C[C@H](CN(C)[C@H]2CCCc4cccnc42)NC3)CC1 | = | 7.77
CN(C[C@H]1Cc2c(cccc2N2C[C@H]3CCN(C)[C@H]3C2)CN1)C1CCCc2cccnc21 (stereo partly drawn) | = | 7.73
CN(C[C@H]1Cc2c(cccc2N2CCN(c3ncccn3)CC2)CN1)[C@H]1CCCc2cccnc21 | = | 7.51
C/C(=C/CN)CN(C[C@H]1Cc2ccccc2CN1)[C@H]1CCCc2cccnc21 | = | 7.55
CN(C[C@H]1Cc2c(cccc2N2CCN(c3cccc(C(F)(F)F)c3)CC2)CN1)[C@H]1CCCc2cccnc21 | < | 4.78
NCC1=C(CN(C[C@H]2Cc3ccccc3CN2)[C@H]2CCCc3cccnc32)CCCC1 | = | 6.64
